TARGET_OF_ASSAY: UniProt Q13535
PROCEDURE_DETAILS: Binding assay ATR (TR-FRET tracer displacement)
PARTICULARS: tracer A, TR-FRET; read-out: ATR binding (tracer A) IC50
READOUT_NAME: IC50 (nM)
Kindly answer with a numeric value in nM, unit omitted.

Consider the following illustrative entries.
Reading of IC50 for Cn1nccc1-c1cc(N2CCOCC2)nc2c(-c3ccn[nH]3)nccc12 with UniProt Q13535: 55.3

Reading of IC50 for O=S(=O)(c1ccccc1)c1cc(N2CCOCC2)nc2c(-c3ccn[nH]3)nccc12 with UniProt Q13535: 293

Reading of IC50 for CCOc1ncccc1-c1cc(N2CCOCC2)nc2c(-c3ccn[nH]3)nccc12 with UniProt Q13535: 239

Reading of IC50 for c1cc(-c2nccc3c(OCC4CCOCC4)cc(N4CCOCC4)nc23)[nH]n1 with UniProt Q13535: 675

Reading of IC50 for O=C1OCCN1c1cc(N2CCOCC2)nc2c(-c3ccn[nH]3)nccc12 with UniProt Q13535: 1140

New cases:
Reading of IC50 for Cc1cc(-c2cc(N3CCOC[C@H]3C)nc3c(-c4ccn[nH]4)nccc23)c(C)s1 with UniProt Q13535: 30

Reading of IC50 for CNC(=O)c1cccc(-c2cc(N3CCOCC3)nc3c(-c4ccn[nH]4)nccc23)c1 with UniProt Q13535: 119

Reading of IC50 for C[C@@H]1COCCN1c1cc(-c2cc(C(F)(F)F)nn2C)c2ccnc(-c3ccn[nH]3)c2n1 with UniProt Q13535: 13.1

Reading of IC50 for CS(=O)(=O)Nc1ccccc1-c1cc(N2CCOCC2)nc2c(-c3ccn[nH]3)nccc12 with UniProt Q13535: 80.9

* * *

TARGET_OF_ASSAY: full-length human ATR protein (Homo sapiens (Human))
PROCEDURE_DETAILS: Binding assay ATR (TR-FRET tracer displacement)
PARTICULARS: tracer A, TR-FRET; read-out: ATR binding (tracer A) IC50
READOUT_NAME: pIC50
Please report pIC50 as the negative decimal logarithm of the molar concentration, giving only the number.

Consider O=C(c1ccc(-c2cc(N3CCOCC3)nc3c(-c4ccn[nH]4)nccc23)cc1)N1CCCCC1 . Its measured pIC50 is 5.52

Consider c1coc(Cc2cc(N3CCOCC3)nc3c(-c4ccn[nH]4)nccc23)c1 . Its measured pIC50 is 7.01

Consider CNC(=O)[C@@H]1CCCN1c1cc(N2CCOCC2)nc2c(-c3ccn[nH]3)nccc12 . Its measured pIC50 is 5.69

Consider CCS(=O)(CC)=Nc1cc(N2CCOC[C@H]2C)nc2c(-c3ccn[nH]3)nccc12 . Its measured pIC50 is 7.67

Consider CS(=O)(=O)c1ccc(-c2cc(N3CCOCC3)nc3c(-c4ccn[nH]4)nccc23)c(F)c1 . Its measured pIC50 is 7.42

New cases:
Consider CS(=O)(=NC#N)c1ccc(-c2cc(N3CCOCC3)nc3c(-c4ccn[nH]4)nccc23)cc1 (centres unmarked) . Its measured pIC50 is 7.36

Consider Cc1c(-c2cc(N3CCOC[C@H]3C)nc3c(-c4ccn[nH]4)nccc23)cnn1C . Its measured pIC50 is 8.18

Consider O=S1(=O)CCCN1c1cc(N2CCOCC2)nc2c(-c3ccn[nH]3)nccc12 . Its measured pIC50 is 7.07

* * *

TARGET_OF_ASSAY: UniProtKB Q13535
PROCEDURE_DETAILS: Binding assay ATR (TR-FRET tracer displacement)
PARTICULARS: tracer A, TR-FRET; read-out: ATR binding (tracer A) IC50
Recorded measurements of log10 of IC50, one per entry
Each number you see is log10 of IC50, and the unit inside the log is nM.

Consider CS(=N)(=O)c1ccc(-c2cc(N3CCOCC3)nc3c(-c4ccn[nH]4)nccc23)cc1 (centres unmarked) [Example 2] . Its measured log10 of IC50 is 1.98

Consider C[C@@H]1COCCN1c1cc(-c2ccccc2)c2ccnc(-c3cc[nH]n3)c2n1 [Example 27] . Its measured log10 of IC50 is 1.24

Consider CC(C)S(=O)(=O)c1cc(N2CCOCC2)nc2c(-c3ccn[nH]3)nccc12 [Example 199] . Its measured log10 of IC50 is 2.14

Consider C[C@@H]1COCCN1c1cc(-c2cccnc2O)c2ccnc(-c3ccn[nH]3)c2n1 [Example 167] . Its measured log10 of IC50 is 2.61

Consider Cc1nc(S(C)(=N)=O)ccc1-c1cc(N2CCOC[C@H]2C)nc2c(-c3ccn[nH]3)nccc12 (some centres unmarked) [Example 116] . Its measured log10 of IC50 is 0.98

New cases:
Consider COc1ccc(F)cc1-c1cc(N2CCOCC2)nc2c(-c3ccn[nH]3)nccc12 [Example 339] . Its measured log10 of IC50 is 1.95

Consider CSc1ccc(-c2cc(N3CCOC[C@H]3C)nc3c(-c4ccn[nH]4)nccc23)c(C)n1 [Example 115] . Its measured log10 of IC50 is 0.87

Consider C[C@@H]1COCCN1c1cc(OCCCS(C)(=O)=O)c2ccnc(-c3ccn[nH]3)c2n1 [Example 197] . Its measured log10 of IC50 is 1.86

* * *

TARGET_OF_ASSAY: full-length human ATR protein (Homo sapiens (Human), UniProt Q13535)
Sequence (Q13535 other isoform, or with tags, fused parts or gaps): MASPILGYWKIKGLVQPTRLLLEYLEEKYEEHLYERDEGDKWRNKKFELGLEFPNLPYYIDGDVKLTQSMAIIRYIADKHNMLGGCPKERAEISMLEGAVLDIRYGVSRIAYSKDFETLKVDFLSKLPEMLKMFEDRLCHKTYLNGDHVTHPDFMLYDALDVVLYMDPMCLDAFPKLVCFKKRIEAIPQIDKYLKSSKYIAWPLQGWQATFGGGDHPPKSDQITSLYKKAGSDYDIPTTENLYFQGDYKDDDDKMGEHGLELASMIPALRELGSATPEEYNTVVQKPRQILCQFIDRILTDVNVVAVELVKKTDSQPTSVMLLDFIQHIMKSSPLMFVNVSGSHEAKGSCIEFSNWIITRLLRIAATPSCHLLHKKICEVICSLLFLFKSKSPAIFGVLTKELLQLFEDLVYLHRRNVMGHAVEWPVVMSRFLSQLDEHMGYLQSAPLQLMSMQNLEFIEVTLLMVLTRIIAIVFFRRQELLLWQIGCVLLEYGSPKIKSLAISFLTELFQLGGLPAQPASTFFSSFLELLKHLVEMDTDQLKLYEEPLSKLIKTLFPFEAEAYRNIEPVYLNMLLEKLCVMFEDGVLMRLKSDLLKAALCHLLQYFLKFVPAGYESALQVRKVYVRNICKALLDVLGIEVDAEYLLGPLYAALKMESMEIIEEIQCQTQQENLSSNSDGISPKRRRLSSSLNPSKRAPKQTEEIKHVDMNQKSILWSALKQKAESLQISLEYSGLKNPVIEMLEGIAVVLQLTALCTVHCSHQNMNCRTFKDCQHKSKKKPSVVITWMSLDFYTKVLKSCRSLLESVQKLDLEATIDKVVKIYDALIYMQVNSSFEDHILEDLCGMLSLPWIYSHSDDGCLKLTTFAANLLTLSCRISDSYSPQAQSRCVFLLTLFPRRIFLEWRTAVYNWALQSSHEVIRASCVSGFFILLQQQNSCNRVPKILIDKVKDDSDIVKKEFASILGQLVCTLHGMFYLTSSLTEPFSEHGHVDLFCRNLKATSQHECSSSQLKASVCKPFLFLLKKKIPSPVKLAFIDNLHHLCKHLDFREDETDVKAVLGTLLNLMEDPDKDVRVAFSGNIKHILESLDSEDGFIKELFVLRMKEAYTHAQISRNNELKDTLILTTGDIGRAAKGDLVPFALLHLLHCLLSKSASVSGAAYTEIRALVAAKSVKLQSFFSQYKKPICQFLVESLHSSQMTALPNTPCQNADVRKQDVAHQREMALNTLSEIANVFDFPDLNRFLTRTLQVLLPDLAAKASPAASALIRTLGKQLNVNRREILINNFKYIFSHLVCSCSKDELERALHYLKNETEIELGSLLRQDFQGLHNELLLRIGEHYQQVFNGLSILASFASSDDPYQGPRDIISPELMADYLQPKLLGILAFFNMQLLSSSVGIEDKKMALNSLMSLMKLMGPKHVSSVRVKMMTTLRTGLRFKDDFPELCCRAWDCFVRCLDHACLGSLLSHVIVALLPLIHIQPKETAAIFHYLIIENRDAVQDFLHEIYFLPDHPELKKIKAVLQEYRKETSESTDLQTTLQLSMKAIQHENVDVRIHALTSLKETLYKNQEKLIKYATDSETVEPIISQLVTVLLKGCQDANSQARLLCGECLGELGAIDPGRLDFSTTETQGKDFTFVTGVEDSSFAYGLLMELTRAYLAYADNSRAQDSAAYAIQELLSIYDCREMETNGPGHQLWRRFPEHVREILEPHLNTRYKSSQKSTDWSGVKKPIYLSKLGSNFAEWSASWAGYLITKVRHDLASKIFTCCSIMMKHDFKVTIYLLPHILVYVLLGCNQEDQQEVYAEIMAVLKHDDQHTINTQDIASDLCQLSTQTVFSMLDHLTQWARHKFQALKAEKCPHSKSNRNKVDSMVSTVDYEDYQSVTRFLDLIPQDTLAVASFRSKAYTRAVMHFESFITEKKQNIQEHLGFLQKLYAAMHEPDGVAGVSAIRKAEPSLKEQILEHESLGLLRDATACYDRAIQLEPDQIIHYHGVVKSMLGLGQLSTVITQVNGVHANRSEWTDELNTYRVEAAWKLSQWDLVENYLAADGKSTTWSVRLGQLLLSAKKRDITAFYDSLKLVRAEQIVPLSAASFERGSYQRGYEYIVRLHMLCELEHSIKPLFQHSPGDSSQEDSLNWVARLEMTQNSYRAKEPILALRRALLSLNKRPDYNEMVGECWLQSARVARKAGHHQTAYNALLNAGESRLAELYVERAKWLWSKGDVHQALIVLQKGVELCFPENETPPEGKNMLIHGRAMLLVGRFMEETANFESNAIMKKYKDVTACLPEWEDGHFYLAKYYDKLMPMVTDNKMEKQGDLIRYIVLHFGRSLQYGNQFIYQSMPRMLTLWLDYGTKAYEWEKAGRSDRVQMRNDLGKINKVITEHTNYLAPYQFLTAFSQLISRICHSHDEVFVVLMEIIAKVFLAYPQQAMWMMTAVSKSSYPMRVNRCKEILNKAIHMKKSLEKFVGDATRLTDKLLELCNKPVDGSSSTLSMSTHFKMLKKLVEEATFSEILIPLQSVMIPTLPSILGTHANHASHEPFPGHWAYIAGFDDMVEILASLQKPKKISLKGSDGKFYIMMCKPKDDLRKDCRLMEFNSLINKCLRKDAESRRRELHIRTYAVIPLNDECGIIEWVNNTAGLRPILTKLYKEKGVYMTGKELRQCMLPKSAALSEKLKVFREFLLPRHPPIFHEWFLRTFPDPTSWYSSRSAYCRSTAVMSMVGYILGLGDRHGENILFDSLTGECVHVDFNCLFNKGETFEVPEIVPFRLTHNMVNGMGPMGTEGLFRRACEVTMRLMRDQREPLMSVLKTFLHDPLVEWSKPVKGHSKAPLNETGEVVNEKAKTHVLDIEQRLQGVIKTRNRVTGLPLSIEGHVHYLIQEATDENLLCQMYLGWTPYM
Sequence (Q8WXE1 other isoform, or with tags, fused parts or gaps partner): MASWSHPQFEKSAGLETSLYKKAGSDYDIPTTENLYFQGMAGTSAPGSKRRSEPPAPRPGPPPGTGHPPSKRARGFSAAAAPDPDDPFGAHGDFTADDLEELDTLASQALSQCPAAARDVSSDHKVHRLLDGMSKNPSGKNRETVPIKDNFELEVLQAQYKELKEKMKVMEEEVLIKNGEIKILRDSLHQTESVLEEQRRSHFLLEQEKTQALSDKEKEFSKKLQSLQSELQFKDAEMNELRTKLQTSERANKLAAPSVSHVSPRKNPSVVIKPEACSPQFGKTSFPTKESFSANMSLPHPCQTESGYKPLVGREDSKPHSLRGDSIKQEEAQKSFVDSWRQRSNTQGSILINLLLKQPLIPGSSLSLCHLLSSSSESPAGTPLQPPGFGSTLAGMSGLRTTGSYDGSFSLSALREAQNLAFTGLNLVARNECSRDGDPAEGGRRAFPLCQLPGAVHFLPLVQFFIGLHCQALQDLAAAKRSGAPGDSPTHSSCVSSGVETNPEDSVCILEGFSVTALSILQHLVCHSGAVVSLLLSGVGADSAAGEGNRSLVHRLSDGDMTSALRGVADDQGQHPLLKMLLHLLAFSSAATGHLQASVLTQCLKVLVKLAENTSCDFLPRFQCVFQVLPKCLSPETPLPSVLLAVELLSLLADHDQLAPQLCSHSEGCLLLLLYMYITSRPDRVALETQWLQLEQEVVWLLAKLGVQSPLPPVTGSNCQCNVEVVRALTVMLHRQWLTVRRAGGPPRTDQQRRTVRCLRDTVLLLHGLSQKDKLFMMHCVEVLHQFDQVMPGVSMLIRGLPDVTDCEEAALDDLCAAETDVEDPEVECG
PROCEDURE_DETAILS: Binding assay ATR (TR-FRET tracer displacement)
PARTICULARS: tracer A, TR-FRET; read-out: ATR binding (tracer A) IC50
Mark each entry 1 (yes) if its IC50 sits below 50 nM, and 0 (no) for all others.

Solved cases below.
stdin: Find out if reported IC50 for C[C@@H]1COCCN1c1cc(-c2ccc(F)cn2)c2ccnc(-c3ccn[nH]3)c2n1 is less than 50 nM
stdout: 0 (no)

stdin: Find out if reported IC50 for c1ccc(-c2ccccc2-c2cc(N3CCOCC3)nc3c(-c4ccn[nH]4)nccc23)cc1 is less than 50 nM
stdout: 0 (no)

stdin: Find out if reported IC50 for C[C@@H]1COCCN1c1cc(-c2cccnc2F)c2ccnc(-c3ccn[nH]3)c2n1 is less than 50 nM
stdout: 1 (yes)

stdin: Find out if reported IC50 for CCn1nccc1-c1cc(N2CCOC[C@H]2C)nc2c(-c3ccn[nH]3)nccc12 is less than 50 nM
stdout: 1 (yes)

stdin: Find out if reported IC50 for CP(C)(=O)c1cc(N2CCOCC2)nc2c(-c3ccn[nH]3)nccc12 is less than 50 nM
stdout: 0 (no)

stdin: Find out if reported IC50 for C[C@@H]1COCCN1c1cc(-c2ccn(CC(C)(C)O)n2)c2ccnc(-c3ccn[nH]3)c2n1 is less than 50 nM
stdout: 0 (no)

stdin: Find out if reported IC50 for CC(C)Sc1cc(N2CCOCC2)nc2c(-c3ccn[nH]3)nccc12 is less than 50 nM
stdout: 0 (no)

stdin: Find out if reported IC50 for Fc1ccc(-c2cc(N3CCOCC3)nc3c(-c4ccn[nH]4)nccc23)cn1 is less than 50 nM
stdout: 0 (no)

stdin: Find out if reported IC50 for CC(C)Nc1cc(N2CCOCC2)nc2c(-c3ccn[nH]3)nccc12 is less than 50 nM
stdout: 0 (no)

stdin: Find out if reported IC50 for Cc1cnn(C)c1-c1cc(N2CCOC[C@H]2C)nc2c(-c3ccn[nH]3)nccc12 is less than 50 nM
stdout: 1 (yes)

New cases:
stdin: Find out if reported IC50 for Cc1ncccc1-c1cc(N2CCOC[C@H]2C)nc2c(-c3ccn[nH]3)nccc12 is less than 50 nM
stdout: 1 (yes)

stdin: Find out if reported IC50 for COC1CCN(c2cc(N3CCOCC3)nc3c(-c4ccn[nH]4)nccc23)CC1 is less than 50 nM
stdout: 0 (no)

stdin: Find out if reported IC50 for O=C1CN(c2cc(N3CCOCC3)nc3c(-c4ccn[nH]4)nccc23)CCN1 is less than 50 nM
stdout: 0 (no)

stdin: Find out if reported IC50 for Clc1cc(N2CCOCC2)nc2c(-c3cc[nH]n3)nccc12 is less than 50 nM
stdout: 0 (no)

stdin: Find out if reported IC50 for CCS(=N)(=O)c1ccc(-c2cc(N3CCOCC3)nc3c(-c4ccn[nH]4)nccc23)cc1 (centres unmarked) is less than 50 nM
stdout: 0 (no)

stdin: Find out if reported IC50 for Cc1nn(C)cc1-c1cc(N2CCOCC2)nc2c(-c3ccn[nH]3)nccc12 is less than 50 nM
stdout: 1 (yes)

* * *

TARGET_OF_ASSAY: full-length human ATR protein (Homo sapiens (Human), UniProt Q13535)
PROCEDURE_DETAILS: Binding assay ATR (TR-FRET tracer displacement)
PARTICULARS: tracer A, TR-FRET; read-out: ATR binding (tracer A) IC50
READOUT_NAME: pIC50
Please report pIC50 as the negative decimal logarithm of the molar concentration, giving only the number.

Consider the following illustrative entries.
Reading of pIC50 for CS(=N)(=O)c1cccc(-c2cc(N3CCOCC3)nc3c(-c4ccn[nH]4)nccc23)c1 (stereo not shown) [Example 19] with full-length human ATR protein (Homo sapiens (Human), UniProt Q13535): 6.53

Reading of pIC50 for Cc1noc(C)c1-c1cc(N2CCOCC2)nc2c(-c3ccn[nH]3)nccc12 [Example 379] with full-length human ATR protein (Homo sapiens (Human), UniProt Q13535): 7.16

Reading of pIC50 for Nc1cccc(-c2cc(N3CCOCC3)nc3c(-c4ccn[nH]4)nccc23)c1 [Example 335] with full-length human ATR protein (Homo sapiens (Human), UniProt Q13535): 7.18

Now consider the entry below.
Reading of pIC50 for CC(C)(C)OC(=O)[C@@H]1CCCN1c1cc(N2CCOCC2)nc2c(-c3ccn[nH]3)nccc12 [Example 422] with full-length human ATR protein (Homo sapiens (Human), UniProt Q13535): 5.65
